The compounds listed here are annotated with their Ki.
measurement.target: human NEP (Homo sapiens, UniProt P08473)
Construct: 1182-ZN
Sequence (P08473 52-750 limits assumed): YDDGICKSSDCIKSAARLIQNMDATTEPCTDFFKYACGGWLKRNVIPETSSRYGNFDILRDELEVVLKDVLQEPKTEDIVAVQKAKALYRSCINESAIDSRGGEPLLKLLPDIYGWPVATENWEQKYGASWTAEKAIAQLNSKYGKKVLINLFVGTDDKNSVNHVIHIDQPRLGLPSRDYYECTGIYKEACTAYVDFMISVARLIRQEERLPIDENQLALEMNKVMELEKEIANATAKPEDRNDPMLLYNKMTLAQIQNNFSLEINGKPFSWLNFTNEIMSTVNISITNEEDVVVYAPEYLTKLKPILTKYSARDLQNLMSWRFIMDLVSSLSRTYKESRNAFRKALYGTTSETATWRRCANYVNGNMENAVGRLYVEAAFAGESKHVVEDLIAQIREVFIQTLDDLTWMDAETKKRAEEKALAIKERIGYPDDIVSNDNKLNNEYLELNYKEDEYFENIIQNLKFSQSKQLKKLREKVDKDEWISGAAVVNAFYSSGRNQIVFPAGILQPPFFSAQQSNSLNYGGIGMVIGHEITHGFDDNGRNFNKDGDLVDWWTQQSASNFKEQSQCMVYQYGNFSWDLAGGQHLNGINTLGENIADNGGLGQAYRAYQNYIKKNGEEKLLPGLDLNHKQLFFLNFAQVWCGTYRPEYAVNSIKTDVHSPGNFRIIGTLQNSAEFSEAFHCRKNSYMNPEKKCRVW
assay.name: In vitro enzyme inhibition assay at human NEP (fluorogenic peptide substrate)
setup.conditions: pKi values at human NEP (recombinant), given as ranges

Use the examples below as a reference point.
>>> experimental_value("C[C@](O)(C[C@@H](Cc1ccc(-c2ccccc2)cc1)NC(=O)c1cnn[nH]1)C(=O)O [Example 2-1]")
"12.6 to 100 nM"
>>> experimental_value("CC(C)(C[C@@H](Cc1ccc(-c2ccccc2)cc1)NC(=O)c1nc(O)n[nH]1)C(=O)O [Example 9-3]")
"1.26 to 10 nM"

-- ask What Ki value was documented for this compound, COc1cc(C(=O)NN(Cc2ccc(-c3ccccc3)cc2)CC(C)(O)C(=O)O)on1 (stereo not shown) [Example 4-3] ?
-- reply 126 to 1000 nM

-- ask Reported Ki, compound C[C@@](O)(CN(Cc1ccc(-c2cc(Cl)ccc2F)cc1)NC(=O)c1nnn[nH]1)C(=O)O [Example 7-23] : ____
-- reply 1.26 to 10 nM

-- ask Given C[C@@](O)(CN(Cc1ccc(-c2cc(Cl)ccc2F)cc1)NC(=O)c1cc(O)no1)C(=O)O [Example 6A] , state its recorded Ki.
-- reply ≤ 1 nM

-- ask Request the reported Ki associated with C[C@@](O)(CN(Cc1ccc(-c2cccc(Cl)c2)cc1)NC(=O)c1cnc(O)nc1)C(=O)O [Example 7-25]
-- reply 1.26 to 10 nM

-- ask Give the measured Ki of CN(C)C(=O)c1cc(C(=O)N[C@H](Cc2ccc(-c3ccccc3)cc2)CC(C)(C)C(=O)O)[nH]n1 [Example 9-13] .
-- reply 12.6 to 100 nM

---

measurement.target: human NEP (Homo sapiens, UniProt P08473)
Construct: 1182-ZN
assay.name: In vitro enzyme inhibition assay at human NEP (fluorogenic peptide substrate)
setup.conditions: pKi values at human NEP (recombinant), given as ranges
Form field: Ki (one value per entry).

These solved cases illustrate the format of a correct answer.
>>> experimental_value("C[C@@](O)(CN(Cc1ccc(-c2ccccc2O)cc1)NC(=O)c1cc(O)no1)C(=O)O [Example 7-16]")
"1.26 to 10 nM"
>>> experimental_value("C[C@@](O)(CN(Cc1ccc(-c2cccc(Cl)c2)cc1)NC(=O)c1c[nH]c(=O)o1)C(=O)O [Example 7-21]")
"1.26 to 10 nM"
>>> experimental_value("CC(O)(C[C@@H](Cc1ccc(-c2ccccc2)cc1)NC(=O)c1n[nH]c(Cl)n1)C(=O)O (stereo partly shown) [Example 2-3]")
"12.6 to 100 nM"
>>> experimental_value("C[C@@](O)(C[C@@H](Cc1ccc(-c2ccccc2)cc1)NC(=O)c1cc(C(=O)O)n[nH]1)C(=O)O [Example 2-13]")
"≤ 1 nM"
>>> experimental_value("C[C@@](O)(CN(Cc1ccc(-c2ccccc2Cl)cc1)NC(=O)c1cc(O)no1)C(=O)O [Example 7-15]")
"12.6 to 100 nM"
>>> experimental_value("CC(C)(C[C@@H](Cc1ccc(-c2ccccc2)cc1)NC(=O)c1cnc(O)nc1)C(=O)O [Example 9-5]")
"1.26 to 10 nM"

-- ask Entry under review: C[C@@](O)(CN(Cc1ccc(-c2ccccc2F)cc1)NC(=O)c1cc(O)no1)C(=O)O [Example 7-17] . Reported Ki?
-- reply 1.26 to 10 nM

---

measurement.target: human NEP (Homo sapiens, UniProt P08473)
Construct: 1182-ZN
assay.name: In vitro enzyme inhibition assay at human NEP (fluorogenic peptide substrate)
setup.conditions: pKi values at human NEP (recombinant), given as ranges
Experimental: The inhibitory activities of compounds at human and rat neprilysin (EC 3.4.24.11; NEP) and human angiotensin converting enzyme (ACE) were determined using in vitro assays as described below. Recombinant human NEP and recombinant human ACE were obtained commercially (R&D Systems, Minneapolis, Minn., catalog numbers 1182-ZN and 929-ZN, respectively). […] Plates were read on a fluorometer with excitation and emission wavelengths set to 320 nm and 405 nm, respectively. […]
pKi: −log10 of the molar value.
pKi values, listed per item

>>> experimental_value("CN(C)C(=O)c1cc(C(=O)NN(Cc2ccc(-c3cccc(Cl)c3)cc2)C[C@@](C)(O)C(=O)O)[nH]n1 [Example 7-9]")
"7.00 to 7.90"
>>> experimental_value("CC(C)(C[C@@H](Cc1ccc(-c2ccccc2)cc1)NC(=O)c1ncn[nH]1)C(=O)O [Example 9-4]")
"7.00 to 7.90"
>>> experimental_value("C[C@](O)(C[C@@H](Cc1ccc(-c2ccccc2)cc1)NC(=O)c1cnc2nn[nH]c2c1)C(=O)O [Example 2-6]")
"7.00 to 7.90"
>>> experimental_value("CC(O)(C[C@@H](Cc1ccc(-c2ccccc2)cc1)NC(=O)c1nc[nH]n1)C(=O)O (some centres unmarked) [Example 2-2]")
"7.00 to 7.90"
>>> experimental_value("O=C(N[C@H](Cc1ccc(-c2ccccc2)cc1)CC1(C(=O)O)CC1)c1cc(O)no1 [Example 11-5]")
"≥ 9.00"
>>> experimental_value("COc1ccccc1-c1ccc(CN(C[C@@](C)(O)C(=O)O)NC(=O)c2cc(O)no2)cc1 [Example 7-14]")
"8.00 to 8.90"
>>> experimental_value("C[C@@](O)(CN(Cc1ccc(-c2cccc(F)c2)cc1)NC(=O)c1cc(O)no1)C(=O)O [Example 7-20]")
"8.00 to 8.90"

Moving on to the next molecule.
-- ask Which pKi value is on record for CC(O)(CN(Cc1ccc(-c2ccccc2)cc1)NC(=O)c1cc(O)no1)C(=O)O (centres unmarked) [Example 3B] ?
-- reply 8.00 to 8.90

---

measurement.target: human NEP (Homo sapiens)
Construct: 1182-ZN
assay.name: In vitro enzyme inhibition assay at human NEP (fluorogenic peptide substrate)
setup.conditions: pKi values at human NEP (recombinant), given as ranges
// values below are reported Ki

Here are 5 compounds together with their reported answers.
>>> experimental_value("CC(C)(C[C@@H](Cc1ccc(-c2ccccc2)cc1)NC(=O)c1cc(C(=O)N2CCC[C@H]2C(=O)O)n[nH]1)C(=O)O")
"1.26 to 10 nM"
>>> experimental_value("CC(C)(C[C@@H](Cc1ccc(-c2ccccc2)cc1)NC(=O)c1cc(C(=O)NCCc2c[nH]cn2)n[nH]1)C(=O)O")
"12.6 to 100 nM"
>>> experimental_value("O=C(N[C@H](Cc1ccc(-c2ccccc2)cc1)CC1(C(=O)O)CC1)c1cc(C(=O)O)[nH]n1 [Example 10A]")
"≤ 1 nM"
>>> experimental_value("Cc1ccc(Cl)cc1-c1ccc(CN(C[C@@](C)(O)C(=O)O)NC(=O)c2cc(O)no2)cc1")
"≤ 1 nM"
>>> experimental_value("CC(C)CN(C)C(=O)c1cc(C(=O)N[C@H](Cc2ccc(-c3ccccc3)cc2)CC(C)(C)C(=O)O)[nH]n1")
"12.6 to 100 nM"

Next:
-- ask I am curious: what Ki value has been reported for C[C@@](O)(CN(Cc1ccc(-c2cc(Cl)ccc2Cl)cc1)NC(=O)c1cc(O)no1)C(=O)O ?
-- reply ≤ 1 nM

---

measurement.target: human NEP (Homo sapiens, UniProt P08473)
Construct: 1182-ZN
assay.name: In vitro enzyme inhibition assay at human NEP (fluorogenic peptide substrate)
setup.conditions: pKi values at human NEP (recombinant), given as ranges
Ki values for the molecules below.

-- ask Fill in the blank: the reported Ki of C[C@@](O)(CN(Cc1ccc(-c2cc(Cl)ccc2F)cc1)NC(=O)c1c[nH]c(=O)o1)C(=O)O is ____.
-- reply 1.26 to 10 nM

-- ask Recorded Ki of CNC(=O)c1cc(C(=O)N[C@H](Cc2ccc(-c3ccccc3)cc2)CC(C)(C)C(=O)O)[nH]n1 , please.
-- reply 12.6 to 100 nM

-- ask GET /values?readout=Ki&item= CC(C)(C[C@@H](Cc1ccc(-c2ccccc2)cc1)NC(=O)c1cc(C(=O)N2CCC(O)C2)n[nH]1)C(=O)O (some centres unmarked)
-- reply 12.6 to 100 nM

-- ask # get_value(readout='Ki', item= C[C@@](O)(CN(Cc1ccc(-c2cccc(Cl)c2)cc1)NC(=O)c1cc(C(=O)O)n[nH]1)C(=O)O )
-- reply ≤ 1 nM

-- ask Consider the molecule O=C(N[C@H](Cc1ccc(-c2ccccc2)cc1)CC1(C(=O)O)CC1)c1cnc(O)nc1 and give its measured Ki.
-- reply 1.26 to 10 nM
